Protocol notes: reversal of MRP1-mediated doxorubicin resistance, pilot screen, H69AR cells, doxorubicin co-treatment (AID 601)
Particulars: H69AR cells + 2 uM doxorubicin, CellTiter-Glo, 72 h; measured here: viability with 2 uM doxorubicin; at 10 µM; stronger effect = lower value
Mark yes (1) for viability under 90%, no (0) if at or over.

A selection of reference data follows.
| Smiles entry | Assigned label |
| --- | --- |
| CCOC(=O)c1sc(Nc2nc3c(OC)cccc3s2)nc1C | yes (1) |
| CC(=O)c1n[nH]nc1NC(=O)c1ccccc1 | no (0) |
| COC(=O)c1nc(N)sc1-c1ccccc1 | yes (1) |
| Cc1nc2ccccc2c(=O)n1NC(=O)Nc1ccccc1 | no (0) |
| COC(=O)c1c(C(=O)OC)n(CCCN)c2ccc(C)cc12 | yes (1) |

For the next question, use this compound.
Q: Please let me know if COc1cccc(NC(=O)COC(=O)c2cccnc2)c1 shows viability below 90%.
Result: yes (1)

Data origin: PubChem BioAssay
